- Tgt: UniProt:Q9R155
- Assay method text: Inhibition of mouse PDS stably expressed in FRT cells coexpressing EYFP-H148Q/I152L/F46L assessed as reduction in I-/Cl- exchange incubated for 10 mins by fluorescence based assay
Observable: IC50

Consider the following illustrative entries.
• Cn1nc(COc2cc(F)c(F)c(F)c2)c2c1CCN(C(=O)Nc1ccc(Cl)cc1)C2 = 3.3 µM
• Cn1nc(COc2cc(F)cc(F)c2)c2c1CCN(S(C)(=O)=O)C2 = > 10 µM
• Cn1nc(COc2cc(F)cc(F)c2)c2c1CCN(C(=S)NC1CCCCC1)C2 = > 10 µM
• CCOC(=O)c1nn(C)c2c1CN(C(=O)Nc1ccc(Cl)cc1)CC2 = > 10 µM
• Cn1nc(COc2cc(F)cc(F)c2)c2c1CCN(S(=O)(=O)c1ccc(C(F)(F)F)cc1)C2 = > 10 µM
• Cn1nc(COc2cc(F)cc(F)c2)c2c1CCN(C(=O)Nc1ccc(Br)cc1)C2 = 3.3 µM

Hey, can you go through the list below and give me IC50 for every item?
1. CC(C)NC(=O)N1CCc2c(c(COc3cc(F)cc(F)c3)nn2C)C1
2. Cn1nc(COc2cc(F)cc(F)c2)c2c1CCN(C(=O)Nc1ccc(Cl)cc1)C2
3. Cn1nc(COc2cc(F)cc(F)c2)c2c1CCN(C(=O)NC(=O)c1ccccc1)C2
4. Cn1nc(COc2cc(F)cc(F)c2)c2c1CCN(C(=O)NC1CCCCC1)C2

1. > 10 µM
2. 3.1 µM
3. > 10 µM
4. > 10 µM

###

- Tgt: Pendrin (Mus musculus)
- Sequence (Q9R155 whole entry): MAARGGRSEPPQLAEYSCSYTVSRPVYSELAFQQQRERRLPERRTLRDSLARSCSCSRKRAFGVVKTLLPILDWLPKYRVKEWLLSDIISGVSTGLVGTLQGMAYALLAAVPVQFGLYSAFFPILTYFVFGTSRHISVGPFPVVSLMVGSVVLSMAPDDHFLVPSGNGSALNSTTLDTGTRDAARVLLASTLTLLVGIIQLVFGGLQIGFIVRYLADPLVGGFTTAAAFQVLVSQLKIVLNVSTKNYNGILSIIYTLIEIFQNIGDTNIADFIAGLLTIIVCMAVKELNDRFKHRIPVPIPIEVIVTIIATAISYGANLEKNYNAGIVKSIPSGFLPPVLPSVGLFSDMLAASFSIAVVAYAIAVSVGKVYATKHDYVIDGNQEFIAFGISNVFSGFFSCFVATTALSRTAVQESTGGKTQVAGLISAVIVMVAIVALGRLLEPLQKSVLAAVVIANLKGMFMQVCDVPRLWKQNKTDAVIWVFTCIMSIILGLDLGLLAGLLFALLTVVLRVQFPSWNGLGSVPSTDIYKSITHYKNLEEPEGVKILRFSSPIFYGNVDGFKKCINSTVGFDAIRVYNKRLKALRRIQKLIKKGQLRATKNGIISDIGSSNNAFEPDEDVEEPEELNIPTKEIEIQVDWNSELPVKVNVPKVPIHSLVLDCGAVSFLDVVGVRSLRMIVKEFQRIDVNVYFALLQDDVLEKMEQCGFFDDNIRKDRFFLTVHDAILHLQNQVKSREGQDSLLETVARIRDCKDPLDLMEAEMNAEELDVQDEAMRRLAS
- Assay method text: Inhibition of mouse PDS stably expressed in FRT cells coexpressing EYFP-H148Q/I152L/F46L assessed as reduction in I-/Cl- exchange incubated for 10 mins by fluorescence based assay
For each entry below, report its IC50 value.

Consider the following illustrative entries.
• Cn1nc(COc2ccc(F)c(F)c2)c2c1CCN(C(=O)Nc1ccc(Cl)cc1)C2 = 4.6 µM
• Cn1nc(COc2cc(F)cc(F)c2)c2c1CCN(S(=O)(=O)c1ccc(Cl)cc1)C2 = > 10 µM
• Cn1nc(COc2cc(F)cc(F)c2)c2c1CCN(C(=S)Nc1ccc(Cl)cc1)C2 = > 10 µM
• Cn1nc(C(=O)O)c2c1CCN(C(=O)Nc1ccc(Cl)cc1)C2 = > 10 µM
• CN(C)c1ccc(NC(=S)N2CCc3c(c(COc4cc(F)cc(F)c4)nn3C)C2)cc1 = > 10 µM

// below: IC50 requested for another compound
What value of IC50 has been reported for the following compound? `CCN(CC)S(=O)(=O)N1CCc2c(c(COc3cc(F)cc(F)c3)nn2C)C1`
> 10 µM
